test target: SF3b complexes (Homo sapiens, UniProt O75533+Q7RTV0)
Construct: endogenous in cells
assay explanation: Scintillation proximity assay (SPA) with [3H]-labelled pladienolide probe
study conditions: wt SF3B1, read-out: SPA (wt SF3B1 cells) IC50
Listed next: entries and their corresponding IC50.
Number only, in nM; omit the unit.

Consider the following illustrative entries.
The compound identified as CC(=O)O[C@H]1/C=C/[C@H](C)[C@@H](/C(C)=C/C=C/[C@@H](C)COC(=O)N2CCC2)OC(=O)C[C@H](O)CC[C@@]1(C)O registered its IC50 at 10.7

The compound identified as C/C(=C\C=C\[C@@H](C)COC(=O)N1CCC[C@H]1C(=O)O)[C@H]1OC(=O)C[C@H](O)CC[C@@](C)(O)[C@@H](OC(=O)N2CCN(C3CCCCCC3)CC2)/C=C/[C@@H]1C registered its IC50 at 36.1

Query compound follows.
The compound identified as CC(=O)O[C@H]1/C=C/[C@H](C)[C@@H](/C(C)=C/C=C/C(c2ccccn2)C(C)C)OC(=O)C[C@H](O)CC[C@@]1(C)O (stereo partly drawn) registered its IC50 at 20.9
